target: CYCLIN K (Homo sapiens); construct: endogenous in cells; host or cells: CAL-120 human breast cancer cells (DSMZ ACC 459); assay: CYCLIN K nuclear protein level: immunofluorescence/high content analysis in CAL-120 cells; type: cell-based; conditions: 24 h, nuclear CCNK staining intensity, median, read-out: CYCLIN K degradation IF, DC50- [mol/l] (median)
Sequence (O75909 whole entry): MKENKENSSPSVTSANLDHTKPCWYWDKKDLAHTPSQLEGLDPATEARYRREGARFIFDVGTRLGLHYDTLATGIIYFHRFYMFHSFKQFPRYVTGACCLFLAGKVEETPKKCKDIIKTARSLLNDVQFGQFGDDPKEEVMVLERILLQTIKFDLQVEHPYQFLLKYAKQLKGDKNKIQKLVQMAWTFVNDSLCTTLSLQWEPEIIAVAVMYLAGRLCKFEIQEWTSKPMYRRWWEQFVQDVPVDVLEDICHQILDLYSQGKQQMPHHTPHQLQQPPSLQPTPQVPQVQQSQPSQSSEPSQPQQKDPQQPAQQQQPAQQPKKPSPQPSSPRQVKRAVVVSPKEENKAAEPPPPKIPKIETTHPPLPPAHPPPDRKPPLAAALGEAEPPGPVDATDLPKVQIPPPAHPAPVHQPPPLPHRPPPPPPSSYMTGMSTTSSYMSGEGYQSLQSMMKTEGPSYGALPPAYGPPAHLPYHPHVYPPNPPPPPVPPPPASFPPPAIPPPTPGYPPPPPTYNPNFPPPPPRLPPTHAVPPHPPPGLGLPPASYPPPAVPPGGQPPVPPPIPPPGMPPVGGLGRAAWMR
Sequence (Q9NYV4 whole entry partner): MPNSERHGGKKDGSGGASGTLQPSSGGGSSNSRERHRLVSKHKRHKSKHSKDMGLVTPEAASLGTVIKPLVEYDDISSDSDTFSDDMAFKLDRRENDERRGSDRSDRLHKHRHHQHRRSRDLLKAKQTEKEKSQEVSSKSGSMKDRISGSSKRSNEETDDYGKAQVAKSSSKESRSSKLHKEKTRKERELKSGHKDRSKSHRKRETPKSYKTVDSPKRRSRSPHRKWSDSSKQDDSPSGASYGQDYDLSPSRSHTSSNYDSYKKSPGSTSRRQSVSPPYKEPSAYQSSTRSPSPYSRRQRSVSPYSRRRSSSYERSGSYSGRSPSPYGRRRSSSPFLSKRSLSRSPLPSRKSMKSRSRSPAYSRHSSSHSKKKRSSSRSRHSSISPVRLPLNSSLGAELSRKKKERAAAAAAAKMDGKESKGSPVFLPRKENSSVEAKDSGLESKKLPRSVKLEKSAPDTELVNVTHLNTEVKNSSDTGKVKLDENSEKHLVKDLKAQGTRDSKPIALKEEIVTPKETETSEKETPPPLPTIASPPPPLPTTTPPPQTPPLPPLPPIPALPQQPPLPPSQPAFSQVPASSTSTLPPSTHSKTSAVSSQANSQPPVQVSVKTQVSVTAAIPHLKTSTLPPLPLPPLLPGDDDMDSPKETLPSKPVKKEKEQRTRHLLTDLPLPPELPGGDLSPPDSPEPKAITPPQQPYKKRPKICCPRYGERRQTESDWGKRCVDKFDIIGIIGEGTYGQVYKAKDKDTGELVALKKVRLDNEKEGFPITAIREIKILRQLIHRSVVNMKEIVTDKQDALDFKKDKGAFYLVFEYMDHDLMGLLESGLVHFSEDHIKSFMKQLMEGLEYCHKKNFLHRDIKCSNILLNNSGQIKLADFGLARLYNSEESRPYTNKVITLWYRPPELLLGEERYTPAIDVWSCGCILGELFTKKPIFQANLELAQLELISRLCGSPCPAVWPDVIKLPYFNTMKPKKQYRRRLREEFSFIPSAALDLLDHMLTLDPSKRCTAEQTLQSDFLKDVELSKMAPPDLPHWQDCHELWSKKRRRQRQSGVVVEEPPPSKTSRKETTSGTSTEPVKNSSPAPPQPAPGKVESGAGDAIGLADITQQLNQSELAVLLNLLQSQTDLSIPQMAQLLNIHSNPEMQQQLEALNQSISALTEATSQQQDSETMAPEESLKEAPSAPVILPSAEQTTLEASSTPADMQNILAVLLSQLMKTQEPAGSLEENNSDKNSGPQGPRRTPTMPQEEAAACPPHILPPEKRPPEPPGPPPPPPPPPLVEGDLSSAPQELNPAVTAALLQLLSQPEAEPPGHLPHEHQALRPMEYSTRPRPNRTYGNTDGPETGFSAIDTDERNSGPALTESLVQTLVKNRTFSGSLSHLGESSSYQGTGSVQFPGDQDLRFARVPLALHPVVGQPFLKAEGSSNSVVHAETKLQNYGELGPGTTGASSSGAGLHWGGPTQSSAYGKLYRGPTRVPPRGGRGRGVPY
Param label: returns Satisfied when DC50 < 5 nM, returns Not satisfied otherwise, including exact equality.

Solved entries:
Given "O[C@H]1CC[C@H](n2nc(NCc3nc4ccccc4[nH]3)c3ncc(C4CC4)nc32)CC1" , is recorded DC50 strictly lower than 5 nM?
Satisfied

Param item: "Cc1ccc2[nH]c(CNc3nn(C4CCN(C)CC4)c4nc(C5CC5)cnc34)nc2c1"
Satisfied

Okay, and "O[C@H]1C[C@H](Cn2nc(NCc3nc4ccccc4[nH]3)c3ncc(C4CC4)nc32)C1" ?
Not satisfied

Further cases:
Would you kindly verify if DC50 of CC(C)(O)C1CC(n2nc(NCc3nc4ccccc4[nH]3)c3ncc(C4CC4)nc32)C1 (mixture of isomers) is strictly less than 5 nM?
Not satisfied

Try the compound "OC1(Cn2nc(NCc3nc4ccccc4[nH]3)c3ncc(C4CC4)nc32)CCC1"
Not satisfied

Entry to check: COCCC(C)n1nc(NCc2nc3ccccc3[nH]2)c2ncc(C3CC3)nc21 (single isomer, unassigned; (-)) [Example 58]
Not satisfied

And "CN1CCC(n2nc(NCc3nc4c(F)cccc4[nH]3)c3ncc(C4CC4)nc32)CC1" ?
Satisfied
